system: L6; test: Cytotoxicity in rat L6 cells assessed as reduction in cell viability incubated for 72 hrs by alamar blue dye based assay; conditions: L6, 72 h
pIC50: −log10 of the molar value.
A collection of molecules and their measured pIC50

| molecule | bound_sign | pIC50 |
| --- | --- | --- |
| CC(C)(C)OC(=O)N(CCCCN(CCCNC(=O)C1CCC2(CC1)OOC1(O2)C2CC3CC(C2)CC1C3)C(=O)OC(C)(C)C)CCCNC(=O)C1CCC2(CC1)OOC1(O2)C2CC3CC(C2)CC1C3 (stereo not drawn) | = | 4.18 |
| CC(C)(C)OC(=O)N(CCCCCCCCCCN(CCCNC(=O)C1CCC2(CC1)OOC1(O2)C2CC3CC(C2)CC1C3)C(=O)OC(C)(C)C)CCCNC(=O)C1CCC2(CC1)OOC1(O2)C2CC3CC(C2)CC1C3 (stereo not drawn) | = | 4.15 |
| C[C@H]1[C@H](OC(=O)CCC(=O)NCCCN(CCCCCCN(CCCNC(=O)CCC(=O)O[C@@H]2O[C@@H]3O[C@@]4(C)CC[C@H]5[C@H](C)CC[C@@H]([C@H]2C)[C@@]35OO4)C(=O)OC(C)(C)C)C(=O)OC(C)(C)C)O[C@@H]2O[C@@]3(C)CC[C@H]4[C@H](C)CC[C@@H]1[C@@]24OO3 | = | 6.18 |
| C[C@H]1[C@H](OC(=O)CCC(=O)NCCCN(CCCCCCCCCCN(CCCNC(=O)CCC(=O)O[C@@H]2O[C@@H]3O[C@@]4(C)CC[C@H]5[C@H](C)CC[C@@H]([C@H]2C)[C@@]35OO4)C(=O)OC(C)(C)C)C(=O)OC(C)(C)C)O[C@@H]2O[C@@]3(C)CC[C@H]4[C@H](C)CC[C@@H]1[C@@]24OO3 | = | 6.30 |
| O=C(NCCCN(CCCCCCCN(CCCNC(=O)C1CCC2(CC1)OOC1(O2)C2CC3CC(C2)CC1C3)C(=O)C1CCC2(CC1)OOC1(O2)C2CC3CC(C2)CC1C3)C(=O)C1CCC2(CC1)OOC1(O2)C2CC3CC(C2)CC1C3)C1CCC2(CC1)OOC1(O2)C2CC3CC(C2)CC1C3 (stereo not drawn) | < | 4.15 |
| O=C(NCCCN(CCCCCCCCN(CCCNC(=O)C1CCC2(CC1)OOC1(O2)C2CC3CC(C2)CC1C3)C(=O)C1CCC2(CC1)OOC1(O2)C2CC3CC(C2)CC1C3)C(=O)C1CCC2(CC1)OOC1(O2)C2CC3CC(C2)CC1C3)C1CCC2(CC1)OOC1(O2)C2CC3CC(C2)CC1C3 (stereo not drawn) | = | 4.23 |
| C[C@H]1[C@H](OC(=O)CCC(=O)NCCCN(CCCCN(CCCNC(=O)CCC(=O)O[C@@H]2O[C@@H]3O[C@@]4(C)CC[C@H]5[C@H](C)CC[C@@H]([C@H]2C)[C@@]35OO4)C(=O)CCC(=O)O[C@@H]2O[C@@H]3O[C@@]4(C)CC[C@H]5[C@H](C)CC[C@@H]([C@H]2C)[C@@]35OO4)C(=O)CCC(=O)O[C@@H]2O[C@@H]3O[C@@]4(C)CC[C@H]5[C@H](C)CC[C@@H]([C@H]2C)[C@@]35OO4)O[C@@H]2O[C@@]3(C)CC[C@H]4[C@H](C)CC[C@@H]1[C@@]24OO3 | = | 4.95 |
| C[C@H]1[C@H](OC(=O)CCC(=O)NCCCN(CCCCN(CCCNC(=O)CCC(=O)O[C@@H]2O[C@@H]3O[C@@]4(C)CC[C@H]5[C@H](C)CC[C@@H]([C@H]2C)[C@@]35OO4)C(=O)OC(C)(C)C)C(=O)OC(C)(C)C)O[C@@H]2O[C@@]3(C)CC[C@H]4[C@H](C)CC[C@@H]1[C@@]24OO3 | = | 4.92 |
| C[C@H]1[C@H](OC(=O)CCC(=O)NCCCN(CCCCCCCCCCN(CCCNC(=O)CCC(=O)O[C@@H]2O[C@@H]3O[C@@]4(C)CC[C@H]5[C@H](C)CC[C@@H]([C@H]2C)[C@@]35OO4)C(=O)CCC(=O)O[C@@H]2O[C@@H]3O[C@@]4(C)CC[C@H]5[C@H](C)CC[C@@H]([C@H]2C)[C@@]35OO4)C(=O)CCC(=O)O[C@@H]2O[C@@H]3O[C@@]4(C)CC[C@H]5[C@H](C)CC[C@@H]([C@H]2C)[C@@]35OO4)O[C@@H]2O[C@@]3(C)CC[C@H]4[C@H](C)CC[C@@H]1[C@@]24OO3 | = | 6.31 |
| O=C(NCCCN(CCCCN(CCCNC(=O)C1CCC2(CC1)OOC1(O2)C2CC3CC(C2)CC1C3)C(=O)C1CCC2(CC1)OOC1(O2)C2CC3CC(C2)CC1C3)C(=O)C1CCC2(CC1)OOC1(O2)C2CC3CC(C2)CC1C3)C1CCC2(CC1)OOC1(O2)C2CC3CC(C2)CC1C3 (stereo not drawn) | = | 4.30 |
| C[C@H]1[C@H](OC(=O)CCC(=O)O)O[C@@H]2O[C@@]3(C)CC[C@H]4[C@H](C)CC[C@@H]1[C@@]24OO3 [ARTESUNATE] | = | 5.18 |
| C[C@H]1[C@H](OC(=O)CCC(=O)NCCCN(CCCCCCCCN(CCCNC(=O)CCC(=O)O[C@@H]2O[C@@H]3O[C@@]4(C)CC[C@H]5[C@H](C)CC[C@@H]([C@H]2C)[C@@]35OO4)C(=O)CCC(=O)O[C@@H]2O[C@@H]3O[C@@]4(C)CC[C@H]5[C@H](C)CC[C@@H]([C@H]2C)[C@@]35OO4)C(=O)CCC(=O)O[C@@H]2O[C@@H]3O[C@@]4(C)CC[C@H]5[C@H](C)CC[C@@H]([C@H]2C)[C@@]35OO4)O[C@@H]2O[C@@]3(C)CC[C@H]4[C@H](C)CC[C@@H]1[C@@]24OO3 | = | 6.05 |
| CC(C)(C)OC(=O)N(CCCCCCN(CCCNC(=O)C1CCC2(CC1)OOC1(O2)C2CC3CC(C2)CC1C3)C(=O)OC(C)(C)C)CCCNC(=O)C1CCC2(CC1)OOC1(O2)C2CC3CC(C2)CC1C3 (stereo not drawn) | = | 4.23 |
